# credit: patent US10689362B2

Each entry below carries its reported pIC50.
- test-system: c-KIT kinase (Homo sapiens (Human))
- procedure-summary: c-KIT kinase assay (radiometric)
- Type: biochemical
- details: class symbol
pIC50: −log10 of the molar value.

Would you please look over these solved cases?
COc1ccc(COc2ccc(Nc3ccc4ncc(N5CCNCC5)nc4c3C#N)cc2OC)cn1: 6.52 to 7.00
COc1cc(Nc2ccc3ncc(N4CCOCC4)nc3c2C#N)ccc1OCc1ccc(C)s1: > 7.00
COc1cc(Nc2ccc3ncc(N4CCOCC4)nc3c2C#N)ccc1OCc1ccsc1: > 7.00

Please report the measured pIC50 for `COc1cc(Nc2ccc3ncc(N4CCC(N(C)C)CC4)nc3c2C#N)ccc1OCc1cccc(F)c1`
> 7.00

Please report the measured pIC50 for `COc1cc(Nc2ccc3ncc(N4CCOCC4)nc3c2C(N)=O)ccc1OCc1ccc(C)nc1`
> 7.00

Please report the measured pIC50 for `COc1cc(Nc2ccc3ncc(N4CCOCC4)nc3c2C#N)ccc1OCc1ccccn1`
6.00 to 6.52

Please report the measured pIC50 for `COc1cc(Nc2ccc3ncc(N4CCOCC4)nc3c2C#N)ccc1OCc1ccc(C#N)cc1`
> 7.00

Please report the measured pIC50 for `COc1cc(Nc2ccc3ncc(N4CCOCC4)nc3c2C#N)ccc1OCc1ccccc1`
> 7.00

Please report the measured pIC50 for `COc1ccc(COc2ccc(Nc3ccc4ncc(N5CCOCC5)nc4c3C#N)cc2OC)nc1`
6.00 to 6.52

Please report the measured pIC50 for `COc1cc(Nc2ccc3ncc(N4CCOCC4)nc3c2C#N)ccc1OCc1cnn(C)c1`
> 7.00

----------
- test-system: c-KIT kinase (Homo sapiens (Human), UniProt P10721)
- Sequence (P10721 26-976): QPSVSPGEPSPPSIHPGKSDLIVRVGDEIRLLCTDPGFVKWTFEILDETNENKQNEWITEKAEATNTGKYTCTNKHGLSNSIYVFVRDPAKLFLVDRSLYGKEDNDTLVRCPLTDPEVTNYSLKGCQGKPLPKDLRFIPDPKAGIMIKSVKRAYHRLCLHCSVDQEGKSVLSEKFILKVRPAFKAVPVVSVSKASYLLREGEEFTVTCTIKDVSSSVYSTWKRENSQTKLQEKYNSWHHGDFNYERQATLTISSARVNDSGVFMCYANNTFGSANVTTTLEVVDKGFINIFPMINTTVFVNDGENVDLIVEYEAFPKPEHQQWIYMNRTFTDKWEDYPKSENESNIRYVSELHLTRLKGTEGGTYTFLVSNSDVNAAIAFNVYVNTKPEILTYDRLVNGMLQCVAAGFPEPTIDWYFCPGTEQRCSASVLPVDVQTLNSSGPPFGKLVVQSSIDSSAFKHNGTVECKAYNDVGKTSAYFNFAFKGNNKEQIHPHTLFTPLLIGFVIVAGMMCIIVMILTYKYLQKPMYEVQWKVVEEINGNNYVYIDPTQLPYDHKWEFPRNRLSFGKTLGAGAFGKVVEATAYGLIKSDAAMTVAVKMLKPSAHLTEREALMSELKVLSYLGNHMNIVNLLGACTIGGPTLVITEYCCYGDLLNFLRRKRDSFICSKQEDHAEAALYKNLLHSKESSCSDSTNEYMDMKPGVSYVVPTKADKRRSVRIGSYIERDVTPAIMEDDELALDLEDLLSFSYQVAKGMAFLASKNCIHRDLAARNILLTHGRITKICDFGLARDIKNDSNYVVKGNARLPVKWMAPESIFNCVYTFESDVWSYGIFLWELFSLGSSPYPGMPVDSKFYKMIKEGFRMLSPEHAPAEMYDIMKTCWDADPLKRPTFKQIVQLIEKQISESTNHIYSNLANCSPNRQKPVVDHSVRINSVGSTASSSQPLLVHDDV
- procedure-summary: c-KIT kinase assay (radiometric)
- Assay type: biochemical
- details: class symbol
Each entry below carries its reported IC50.

Would you please look over these solved cases?
COc1ccc(COc2ccc(Nc3ccc4ncc(N5CCC5)nc4c3C#N)cc2OC)cn1 [Example 86]: 100 to 300 nM
COc1ccc(COc2ccc(Nc3ccc4ncc(N5CCN(C6CC6)CC5)nc4c3C#N)cc2OC)cn1 [Example 118]: 100 to 300 nM
COc1ccc(COc2ccc(Nc3ccc4ncc(N5CCN(CCO)CC5)nc4c3C#N)cc2OC)cc1 [Example 66]: < 100 nM

Note: attention shifts to another entry.
Would you please give the reported IC50 of COc1cc(Nc2ccc3ncc(N4CCOCC4)nc3c2C#N)ccc1OCc1ccco1 [Example 122] with c-KIT kinase (Homo sapiens (Human), UniProt P10721)?
< 100 nM

----------
Each entry below carries its reported pIC50.
- test-system: c-KIT kinase (Homo sapiens (Human), UniProt P10721)
- procedure-summary: c-KIT kinase assay (radiometric)
- Format: biochemical
- details: class symbol
pIC50: −log10 of the molar value.

Would you please look over these solved cases?
COc1ccc(COc2ccc(N(C)c3ccc4ncc(N5CCOCC5)nc4c3C#N)cc2OC)cc1 [Example 60]: 6.00 to 6.52
CCc1ccc(COc2ccc(Nc3ccc4ncc(N5CCOCC5)nc4c3C#N)cc2OC)cn1 [Example 101]: > 7.00
COc1ccc(COc2ccc(Nc3ccc4ncc(N5CCOCC5)nc4c3C#N)cc2)cc1 [Example 38]: > 7.00
COc1ccc(COc2ccc(Nc3ccc4ncc(N5CCC(OC(C)=O)CC5)nc4c3C#N)cc2OC)cc1 [Example 68]: > 7.00
COc1cc(Nc2ccc3ncc(N4CCOCC4)nc3c2C#N)ccc1OCC1CCCO1 (centres unmarked) [Example 123]: 6.00 to 6.52

Please report the measured pIC50 for COc1ccc(CNc2ccc(Nc3ccc4ncc(N5CCOCC5)nc4c3C#N)cc2OC)cc1 [Example 39]
6.52 to 7.00

Please report the measured pIC50 for COc1cc(Nc2ccc3ncc(N4CC(N(C)C)C4)nc3c2C#N)ccc1OCc1ccc(C)nc1 [Example 136]
> 7.00

Please report the measured pIC50 for COc1cc(Nc2ccc3ncc(N4CCOCC4)nc3c2C#N)ccc1OCc1ccc(C(C)C)nc1 [Example 103]
> 7.00

Please report the measured pIC50 for COc1ccc(COc2ccc(Nc3ccc4ncc(N5CCN(CCOC(C)=O)CC5)nc4c3C#N)cc2OC)cn1 [Example 74]
> 7.00

Please report the measured pIC50 for COc1cc(Nc2ccc3ncc(N4CCOCC4)nc3c2C#N)ccc1OCC1CC1 [Example 36]
6.52 to 7.00

Please report the measured pIC50 for COc1ccc(COc2ccc(Nc3ccc4ncc(NC(C)C)nc4c3C#N)cc2OC)cc1 [Example 17]
> 7.00

Please report the measured pIC50 for COc1ccc(COc2ccc(Nc3ccc4ncc(N5CCOCC5)nc4c3C#N)cn2)cc1 [Example 52]
6.52 to 7.00

Please report the measured pIC50 for COc1cc(Nc2ccc3ncc(N4CCOCC4)nc3c2C#N)ccc1OCc1cnccn1 [Example 51]
> 7.00

Please report the measured pIC50 for COc1ccc(COc2ccc(Nc3ccc4ncc(N5CCCC5)nc4c3C#N)cc2OC)cn1 [Example 79]
> 7.00

Please report the measured pIC50 for COc1cc(Nc2ccc3ncc(N4CCOCC4)nc3c2C#N)ccc1OCc1ccc2c(c1)OCO2 [Example 81]
6.00 to 6.52

Please report the measured pIC50 for COCc1ccc(COc2ccc(Nc3ccc4ncc(N5CCOCC5)nc4c3C#N)cc2OC)nc1 [Example 125]
> 7.00

Please report the measured pIC50 for COc1ccc(COc2ccc(Nc3ccc4ncc(NCCN5CCOCC5)nc4c3C#N)cc2OC)cc1 [Example 76]
6.00 to 6.52
